Target: Neutrophil elastase (Homo sapiens) (UniProt P08246)
Experiment: elastase inhibitory activity, evaluated for second order rate constant (time-dependent inhibition)
Recorded second order rate constant kobs/[I] by entry
Please reply with the bare figure in M⁻¹ s⁻¹ and do not write the unit itself.

For orientation, consider the following solved cases.
In [3]: df
Out[3]:
                                   molecule                        readout_label  endpoint_value
0  CCC1(CC)C(=O)N(C(=O)NCc2ccccc2)C1Oc1ccc(CC(=O)O)cc1 (stereo not given)  second order rate constant kobs/[I]            3200
1  CCC1(CC)C(=O)N(C(=O)NCc2ccc([N+](=O)[O-])cc2)C1Oc1ccc(C(=O)O)cc1 (stereo not given)  second order rate constant kobs/[I]            5100
2  CCCCCCCCCNC(=O)N1C(=O)C(CC)(CC)C1Oc1ccc(C(=O)O)cc1 (stereo not given)  second order rate constant kobs/[I]            8300
3  CCC1(CC)C(=O)N(C(=O)NCc2ccccc2C)C1Oc1ccc(C(=O)O)cc1 (stereo not given)  second order rate constant kobs/[I]             700

Q: Can you look up second order rate constant kobs/[I] on Neutrophil elastase (Homo sapiens) (UniProt P08246) for CCC1(CC)C(=O)N(C(=O)NCCc2ccccc2)C1Oc1ccc(C(=O)O)cc1 (stereo not given) ?
Result: 1300

----------
Target: Neutrophil elastase (Homo sapiens) (UniProt P08246)
Sequence (whole entry): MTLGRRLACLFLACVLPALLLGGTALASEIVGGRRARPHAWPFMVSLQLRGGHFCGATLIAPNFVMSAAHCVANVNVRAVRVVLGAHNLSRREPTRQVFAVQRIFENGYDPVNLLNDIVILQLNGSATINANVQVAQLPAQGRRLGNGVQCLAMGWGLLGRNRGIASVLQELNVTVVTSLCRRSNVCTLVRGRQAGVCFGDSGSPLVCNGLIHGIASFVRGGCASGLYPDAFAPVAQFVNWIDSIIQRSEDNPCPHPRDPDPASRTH
Assay: Percent inhibition in elastase-induced lung haemorrhage, when the compound is dosed orally at 30 mg/kg 30 min before challenge by HLE (Human leukocyte elastase)
Assay type: functional, organism-based
Set-up: dose 30 mg/kg
Readout Label: inhibition (%)
Please reply with the bare figure in % and do not write the unit itself.

For orientation, consider the following solved cases.
                                   compound  readout_label  endpoint_value
0  CCC1(CC)C(=O)N(C(=O)NCc2ccc(C(=O)O)cc2)C1Oc1ccc(C(=O)O)cc1 (centres undefined)     inhibition              25
1  CCC1(CC)C(=O)N(C(=O)NCc2ccc(C)cc2)C1Oc1ccc(C(=O)O)cc1 (centres undefined)     inhibition              86
2  CCC1(CC)C(=O)N(C(=O)NCc2cc(C)cc(C)c2)C1Oc1ccc(C(=O)O)cc1 (centres undefined)     inhibition              69
3  CCC1(CC)C(=O)N(C(=O)NCc2ccccc2N)C1Oc1ccc(C(=O)O)cc1 (centres undefined)     inhibition              73
4  CCC1(CC)C(=O)N(C(=O)NCc2ccc(-c3ccccc3)cc2)C1Oc1ccc(C(=O)O)cc1 (centres undefined)     inhibition              24
5  CCC1(CC)C(=O)N(C(=O)NCc2ccc(OC)cc2)C1Oc1ccc(C(=O)O)cc1 (centres undefined)     inhibition              60

Q: Returns the measured inhibition for the input compound. Input: CCC1(CC)C(=O)N(C(=O)NCCCC(=O)c2ccccc2)C1Oc1ccc(C(=O)O)cc1 (centres undefined)
Result: 0

Q: Cool, now CCN(Cc1ccccc1)C(=O)N1C(=O)C(CC)(CC)C1Oc1ccc(C(=O)O)cc1 (centres undefined)
Result: 34

Q: Cool, now CCC1(CC)C(=O)N(C(=O)NCc2ccco2)C1Oc1ccc(C(=O)O)cc1 (centres undefined)
Result: 58
